# pIC50 per record follows
Tested on: 922993-354-T-J3-PDC complex spheroids, viability, % test/control;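 further: spheroids exposed to the agents for 7 days before readout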
protocolDetails: Anticancer human tumor 922993-354-T-J3-PDC patient-derived endometrial carcinoma cell line growth inhibition [CLK]
reportedConditions: curve of first compound; second compound 0.316 µM
pIC50: −log10 of the molar value.

CCc1c2c(nc3ccc(O)cc13)-c1cc3c(c(=O)n1C2)COC(=O)[C@]3(O)CC + CNC(=O)c1ccc(Nc2nc(OC3CCCC3)c3c(-c4ccc5nc(C)oc5c4)c[nH]c3n2)c(OC)c1; 7.78
NC(=O)C(=Cn1cnc(-c2cc(C(F)(F)F)cc(C(F)(F)F)c2)n1)c1cncnc1 + CN1CCN(c2cc(C(=O)Nc3cc4cc(-c5cnn(C)c5)ccc4cn3)ccn2)CC1; > 8.02
C=CC(=O)Nc1cc(Nc2nccc(-c3cn(C)c4ccccc34)n2)c(OC)cc1N(C)CCN(C)C + CN1CCN(c2cc(C(=O)Nc3cc4cc(-c5cnn(C)c5)ccc4cn3)ccn2)CC1; > 9.02
COc1cccc2c1C(=O)c1c(O)c3c(c(O)c1C2=O)CC(O)(C(=O)CO)CC3OC1CC(N)C(O)C(C)O1 (stereo not given) + CN1CCN(c2cc(C(=O)Nc3cc4cc(-c5cnn(C)c5)ccc4cn3)ccn2)CC1; > 7.50
COc1ccc([C@@H](O)c2cc(-c3ncnc4cc(N5CCOCC5)ccc34)c(F)cc2Cl)nn1 + CNC(=O)c1ccc(Nc2nc(OC3CCCC3)c3c(-c4ccc5nc(C)oc5c4)c[nH]c3n2)c(OC)c1; < 5.00
CCCS(=O)(=O)Nc1ccc(F)c(C(=O)c2c[nH]c3ncc(-c4ccc(Cl)cc4)cc23)c1F + CNC(=O)c1ccc(Nc2nc(OC3CCCC3)c3c(-c4ccc5nc(C)oc5c4)c[nH]c3n2)c(OC)c1; 6.19
CCCS(=O)(=O)Nc1ccc(F)c(C(=O)c2c[nH]c3ncc(-c4ccc(Cl)cc4)cc23)c1F + CN1CCN(c2cc(C(=O)Nc3cc4cc(-c5cnn(C)c5)ccc4cn3)ccn2)CC1; > 7.50
CC(C)CC(NC(=O)C(Cc1ccccc1)NC(=O)c1cnccn1)B(O)O (stereo not given) + CNC(=O)c1ccc(Nc2nc(OC3CCCC3)c3c(-c4ccc5nc(C)oc5c4)c[nH]c3n2)c(OC)c1; 8.28

query: For COc1c(OCCCN2CCOCC2)ccc2c3n(c(=NC(=O)c4cnc(N)nc4)nc12)CCN3 + CNC(=O)c1ccc(Nc2nc(OC3CCCC3)c3c(-c4ccc5nc(C)oc5c4)c[nH]c3n2)c(OC)c1 , what is its reported pIC50?
result: 6.77

query: Now this one: Cn1ncnc1[C@H]1c2n[nH]c(=O)c3cc(F)cc(c23)N[C@@H]1c1ccc(F)cc1 + CN1CCN(c2cc(C(=O)Nc3cc4cc(-c5cnn(C)c5)ccc4cn3)ccn2)CC1
result: > 9.50

query: Same thing, different molecule: C=C(F)C(=O)N1CCN(c2nc(OCC3CCCN3C)nc3c2CCN(c2cccc4cccc(Cl)c24)C3)CC1CC#N (stereo not given) + CN1CCN(c2cc(C(=O)Nc3cc4cc(-c5cnn(C)c5)ccc4cn3)ccn2)CC1
result: > 7.50

query: # iterate: C#Cc1c(F)ccc2cc(O)cc(-c3ncc4c(N5CC6CCC(C5)N6)nc(OCC56CCCN5CC(F)C6)nc4c3F)c12 (stereo not given) + CNC(=O)c1ccc(Nc2nc(OC3CCCC3)c3c(-c4ccc5nc(C)oc5c4)c[nH]c3n2)c(OC)c1
result: < 5.00

query: Same read-out for C=C(F)C(=O)N1CCN(c2nc(OCC3CCCN3C)nc3c2CCN(c2cccc4cccc(Cl)c24)C3)CC1CC#N (stereo not given) + CNC(=O)c1ccc(Nc2nc(OC3CCCC3)c3c(-c4ccc5nc(C)oc5c4)c[nH]c3n2)c(OC)c1 ?
result: 5.46

query: Request: CC(C)CC(NC(=O)C(Cc1ccccc1)NC(=O)c1cnccn1)B(O)O (stereo not given) + CN1CCN(c2cc(C(=O)Nc3cc4cc(-c5cnn(C)c5)ccc4cn3)ccn2)CC1
result: > 9.02

query: What about this molecule? Nc1ccn(C2OC(CO)C(O)C2(F)F)c(=O)n1 (stereo not given) + CNC(=O)c1ccc(Nc2nc(OC3CCCC3)c3c(-c4ccc5nc(C)oc5c4)c[nH]c3n2)c(OC)c1
result: > 7.50

query: Param item: COc1ccc([C@@H](O)c2cc(-c3ncnc4cc(N5CCOCC5)ccc34)c(F)cc2Cl)nn1 + CN1CCN(c2cc(C(=O)Nc3cc4cc(-c5cnn(C)c5)ccc4cn3)ccn2)CC1
result: > 7.50

query: Try the molecule CC(=O)O[C@H]1C(=O)[C@@]2(C)[C@H]([C@H](OC(=O)c3ccccc3)[C@]3(O)C[C@H](OC(=O)[C@H](O)[C@@H](NC(=O)c4ccccc4)c4ccccc4)C(C)=C1C3(C)C)[C@]1(OC(C)=O)CO[C@@H]1C[C@@H]2O + CN1CCN(c2cc(C(=O)Nc3cc4cc(-c5cnn(C)c5)ccc4cn3)ccn2)CC1
result: > 7.50

query: Another molecule to check: CC(Nc1ccc2c(c1)OCCn1cc(N3C(=O)OCC3C(F)F)nc1-2)C(N)=O (stereo not given) + CNC(=O)c1ccc(Nc2nc(OC3CCCC3)c3c(-c4ccc5nc(C)oc5c4)c[nH]c3n2)c(OC)c1
result: 5.71

query: Ok, now CCN1CCN(Cc2ccc(Nc3ncc(F)c(-c4cc(F)c5nc(C)n(C(C)C)c5c4)n3)nc2)CC1 + CN1CCN(c2cc(C(=O)Nc3cc4cc(-c5cnn(C)c5)ccc4cn3)ccn2)CC1
result: > 8.50

query: Next molecule: CC1(C)CCC(CN2CCN(c3ccc(C(=O)NS(=O)(=O)c4ccc(NCC5CCOCC5)c([N+](=O)[O-])c4)c(Oc4cnc5[nH]ccc5c4)c3)CC2)=C(c2ccc(Cl)cc2)C1 + CNC(=O)c1ccc(Nc2nc(OC3CCCC3)c3c(-c4ccc5nc(C)oc5c4)c[nH]c3n2)c(OC)c1
result: 5.32
